Where do these numbers come from? They come from patent US9133199B2.

- Assayed System: human PLK1 (Homo sapiens (Human), UniProt P53350)
- Sequence (P53350 whole entry): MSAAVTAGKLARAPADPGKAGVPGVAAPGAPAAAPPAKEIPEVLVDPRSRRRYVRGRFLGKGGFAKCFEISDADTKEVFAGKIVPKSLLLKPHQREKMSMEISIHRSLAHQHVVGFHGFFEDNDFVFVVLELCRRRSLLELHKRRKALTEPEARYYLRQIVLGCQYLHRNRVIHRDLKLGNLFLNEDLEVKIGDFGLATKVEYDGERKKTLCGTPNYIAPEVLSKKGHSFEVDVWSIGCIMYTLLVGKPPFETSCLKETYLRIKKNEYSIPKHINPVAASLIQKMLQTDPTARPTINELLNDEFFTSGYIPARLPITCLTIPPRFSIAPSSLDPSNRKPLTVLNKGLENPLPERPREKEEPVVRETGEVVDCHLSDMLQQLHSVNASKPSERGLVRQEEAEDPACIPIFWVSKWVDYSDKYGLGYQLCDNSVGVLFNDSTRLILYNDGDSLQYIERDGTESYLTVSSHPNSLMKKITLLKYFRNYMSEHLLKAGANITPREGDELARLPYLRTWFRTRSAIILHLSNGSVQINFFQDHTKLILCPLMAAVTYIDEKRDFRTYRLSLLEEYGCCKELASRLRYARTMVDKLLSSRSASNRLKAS
- Measurement Protocol: PLK1 protein kinase assay (CDC25C phosphorylation, [γ-32P]-ATP)
- Type: biochemical
- Reported Conditions: Table 2
Reported Property: IC50

As a guide, the following entries are already answered.
>>> df
                                   compound  reported_property   reported
0  COc1cc(C(=O)NC2c3ccccc3C[C@H]2O)ccc1Nc1ncc2c(n1)N(C1CCCC1)CC1(CC1)C(=O)N2C (some centres unmarked) [Compound 184]               IC50  < 1000 nM
1  COc1cc(C(=O)NC2CCN(C)CC2)ccc1Nc1ncc2c(n1)N(C(C)C)CC1(CC1)C(=O)N2C [Compound 99]               IC50  < 1000 nM
2  COc1cc(C(=O)NCC2CCCCN2C)ccc1Nc1ncc2c(n1)N(C1CCCC1)CCC(=O)N2C (centres unmarked) [Compound 202]               IC50  < 1000 nM
3  CN1C(=O)CCN(C2CCCC2)c2nc(NCc3ccsc3)ncc21 [Compound 106]               IC50  < 1000 nM

Returns the measured IC50 for the input compound. Input: CCN(CC)CCNC(=O)c1ccc(Nc2ncc3c(n2)N(CC2CC2)CCC(=O)N3C)c(OC)c1 [Compound 240]
< 100 nM

====

A collection of compounds and their measured IC50
- Assayed System: human PLK1 (Homo sapiens (Human))
- Measurement Protocol: PLK1 protein kinase assay (CDC25C phosphorylation, [γ-32P]-ATP)
- Assay type: biochemical
- Reported Conditions: Table 3; read-out: PLK 1 IC50

>>> print(df.to_string())
                                   compound                     assayed_system  reported
0  COc1cc(C(=O)NC2CCC(N3CCCN(Cc4ccccc4)CC3)CC2)ccc1Nc1ncc2c(n1)N(C1CCCC1)CC1(CC1)C(=O)N2C (centres unmarked)  human PLK1 (Homo sapiens (Human))  < 0.1 µM

Here is another compound to look at.
# IC50 lookup, item COc1cc(C(=O)N[C@H]2CC[C@@H](N3CCOCC3)CC2)ccc1Nc1ncc2c(n1)N(C1CCCC1)CC1(CC1)C(=O)N2C
0.1 to 1 µM

====

- Assayed System: UniProt O14965
- Sequence (O14965 whole entry, species assumed): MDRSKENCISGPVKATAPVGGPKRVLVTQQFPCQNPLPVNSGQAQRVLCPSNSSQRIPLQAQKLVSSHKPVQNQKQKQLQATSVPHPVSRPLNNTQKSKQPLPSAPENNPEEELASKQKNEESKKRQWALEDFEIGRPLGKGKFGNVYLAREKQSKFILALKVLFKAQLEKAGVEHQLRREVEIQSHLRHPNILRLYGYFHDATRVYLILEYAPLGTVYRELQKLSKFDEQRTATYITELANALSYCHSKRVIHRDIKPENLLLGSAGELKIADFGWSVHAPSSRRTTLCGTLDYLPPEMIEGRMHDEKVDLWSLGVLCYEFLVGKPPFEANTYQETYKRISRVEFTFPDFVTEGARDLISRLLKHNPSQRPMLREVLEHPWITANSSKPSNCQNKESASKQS
pIC50: −log10 of the molar value.
Reported Property: pIC50

Look at this compound and give its reported pIC50. CN1C(=O)CCN(C2CCCC2)c2nc(Nc3cccc4cc[nH]c34)ncc21
> 6.00
